Catalogue of pEC50 values
Biological target: h FPR2 (Homo sapiens, UniProt P25090)
Sequence (P25090 whole entry): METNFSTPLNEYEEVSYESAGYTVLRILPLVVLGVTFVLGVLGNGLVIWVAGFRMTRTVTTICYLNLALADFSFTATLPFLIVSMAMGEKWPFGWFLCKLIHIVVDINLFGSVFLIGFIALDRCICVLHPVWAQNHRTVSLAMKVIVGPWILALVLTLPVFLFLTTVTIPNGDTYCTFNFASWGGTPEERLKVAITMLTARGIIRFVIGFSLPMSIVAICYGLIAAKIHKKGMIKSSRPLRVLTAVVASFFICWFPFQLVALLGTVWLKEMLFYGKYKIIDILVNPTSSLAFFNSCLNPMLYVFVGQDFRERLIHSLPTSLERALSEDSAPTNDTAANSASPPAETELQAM
Test: Agonistic activity in hFPR2-Aq-CHO cells (FLIPR Calcium 5 fluorescence assay)
Details: 11 point half log dilution, final assay concentration from 10µM
pEC50: −log10 of the molar value.
Experimental readout: pEC50

• CNCC(=O)N1CC[C@@H](NC(=O)Nc2ccc(Cl)cc2)[C@H](c2ccc(OC)cn2)C1 (relative stereo) [Ex-96] = 8.40
• COc1ccc([C@@H]2CN(C(=O)C3CCNCC3)CC[C@H]2NC(=O)Nc2ccccc2)nc1 (relative stereo) [Ex-151] = 7.46
• COc1ccc([C@@H]2CN(Cc3cncc(Cl)c3)CC[C@H]2NC(=O)Nc2ccc(Cl)cc2)nc1 (relative stereo) [Ex-69] = 10.15
• Cc1cncc(CN2CC[C@@H](NC(=O)Nc3ccc(Cl)cc3)[C@H](c3ccc(Cl)s3)C2)c1 (relative stereo) [Ex-72] = 8.70
• COc1ccc([C@@H]2CN(c3ccncn3)CC[C@H]2NC(=O)Nc2ccc(Cl)cc2)nc1 (relative stereo) [Ex-7] = 9.40
• COc1ccc([C@H]2CN(C(C)(C)C(N)=O)CC[C@@H]2NC(=O)Nc2ccc(Cl)cc2)nc1 [Ex-225] = 8.10
• Cc1cc(NC(=O)N[C@@H]2CCN(c3cnccn3)C[C@H]2c2ccc(Cl)cn2)sn1 (relative stereo) [Ex-19] = 9.10
